Target: recombinant neuraminidase (rNA) of B/Malaysia/2506/04 (influenza B virus B/Malaysia/2506/04)
MEASUREMENT_LABEL: Kd (nM)

recombinant 1F2 IgG2b (antibody, V domains shown) VH: QVHLQQSGPEVARPGASVKLSCKASGYTFTDYYLNWVKQRPRQGLEWIGQIHPGSTNTYYNEKFKGKATLTADKSSSTAYMQLSSLTSEDSAVYFCARSLGDGYYVYAMDYWGQGTAVTVSS VL: DIVMTQSQKFMSTSVGDRVSVTCKASQNVVTNVVWYQQKPGQSPKPLIYSASYRYSGVPDRFTGSGSGTDFTLTISNVQSEDLAEYCCQQYHSYPFTFGSGTKLEVK ... 1.16
